Please respond with reported MIC for every item in the list.
Test system: carbapenemase producing K. pneumoniae
Assay: MIC by broth micro-dilution (CLSI), carbapenemase producing K. pneumoniae
Type: cell-based, Klebsiella pneumoniae
Conditions: Klebsiella pneumoniae, ATCCBAA1705, KPC-2 K. pneumoniae ATCC BAA-1705; read-out: MIC
# number only, unit µg/mL dropped from output

MIC for carbapenemase producing K. pneumoniae with input C[C@@H](NC(=O)Cn1cnnn1)[C@H]1C(=O)N2C(C(=O)O)=C(S[C@@H]3CN[C@H](C(=O)N4CC5CNCC5C4)C3)[C@H](C)[C@H]12 (stereo partly drawn) equals 2

MIC for carbapenemase producing K. pneumoniae with input C[C@@H](NC(=O)C(F)F)[C@H]1C(=O)N2C(C(=O)O)=C(S[C@@H]3CN[C@H](C(=O)N4CCO[C@H](CN)C4)C3)[C@H](C)[C@H]12 equals 8

----------
Please respond with reported MIC for every item in the list.
Tested on: carbapenemase producing K. pneumoniae
Test: MIC by broth micro-dilution (CLSI), carbapenemase producing K. pneumoniae
Type: cell-based, Klebsiella pneumoniae
Settings: Klebsiella pneumoniae, ATCCBAA1705, KPC-2 K. pneumoniae ATCC BAA-1705; read-out: MIC
# number only, unit mg/L dropped from output

Form field MIC, entry CNCC(=O)N[C@H](C)[C@H]1C(=O)N2C(C(=O)O)=C(S[C@@H]3CN[C@H](C(=O)N4CC[C@@H](F)C4)C3)[C@H](C)[C@H]12 [Example 215] : 8

Form field MIC, entry CNCC(=O)N[C@H](C)[C@H]1C(=O)N2C(C(=O)O)=C(S[C@@H]3CN[C@H](C(=O)N4CC[C@@H](O)C4)C3)[C@H](C)[C@H]12 [Example 192] : 2

Form field MIC, entry CCOC(=O)N[C@H](C)[C@H]1C(=O)N2C(C(=O)O)=C(S[C@@H]3CN[C@H](C(=O)N(C)C)C3)[C@H](C)[C@H]12 [Example 15] : 16

Form field MIC, entry C[C@@H](NC(=O)Cn1nnnc1C(F)(F)F)[C@H]1C(=O)N2C(C(=O)O)=C(S[C@@H]3CN[C@H](C(=O)N4CC[C@@H](N)C4)C3)[C@H](C)[C@H]12 [Example 347] : 16

Form field MIC, entry CNC(=O)[C@@H]1C[C@H](SC2=C(C(=O)O)N3C(=O)[C@H]([C@@H](C)NC(=O)C(F)F)[C@H]3[C@H]2C)CN1 [Example 101] : 4

Form field MIC, entry C[C@@H](NC(=O)Cn1cnnn1)[C@H]1C(=O)N2C(C(=O)O)=C(S[C@@H]3CN[C@H](C(=O)N4C[C@H](N)C[C@H]4CN)C3)[C@H](C)[C@H]12 [Example 444] : 2

Form field MIC, entry C[C@@H](NC(=O)Cn1cncn1)[C@H]1C(=O)N2C(C(=O)O)=C(S[C@@H]3CN[C@H](C(=O)N4CCNCC4)C3)[C@H](C)[C@H]12 [Example 314] : 2

Form field MIC, entry C[C@@H](NC(=O)Cn1cnnn1)[C@H]1C(=O)N2C(C(=O)O)=C(S[C@@H]3CN[C@H](C(=O)Nc4cccc(C(=O)N5CCNCC5)c4)C3)[C@H](C)[C@H]12 [Example 483] : 4

Form field MIC, entry C[C@@H](NC(=O)Cn1cnnn1)[C@H]1C(=O)N2C(C(=O)O)=C(S[C@@H]3CN[C@H](C(=O)N4CC5CC(CO)NC5C4)C3)[C@H](C)[C@H]12 (single isomer, unassigned) [Example 551] : 2

Form field MIC, entry C[C@@H](NC(=O)C(F)F)[C@H]1C(=O)N2C(C(=O)O)=C(S[C@@H]3CN[C@H](C(=O)N4CC[C@H](n5cc(CN)nn5)C4)C3)[C@H](C)[C@H]12 [Example 176] : 8
